# Test system: Trypanosoma brucei
# protocol-text: Trypanosoma brucei 72 hour study
# Assay type: functional, organism-based
# Set-up: scale not given: in the data most compounds retested in dose-response had high values
# details: 30 µM; 30.03 µM
Screen size: about 66,000 compounds; about 960 (1.5%) showed an effect of 50% or more. What follows is part of a selection rich in strong results, with near analogues and random picks from the rest.
measured-metric: Percent Effect (%)
Quick reminder: number only, in %, skip the unit.

GET /value?item= CC(C)NC(=O)N1CCN(CC2CC2)CC2(CNC(=O)C2)C1.O=C(O)C(F)(F)F (stereo not given) &field=Percent Effect returns -4.336

GET /value?item= O=C(N1CCCC1)N1CCC2(CCN(Cc3ccccn3)C2=O)C1.O=C(O)C(F)(F)F (stereo not given) &field=Percent Effect returns -20.49

GET /value?item= NCCn1cc(C(=O)N2CCCCCC2c2ccco2)nn1 (stereo not given) &field=Percent Effect returns -18.67

GET /value?item= CN(C)CCOC[C@H]1CC[C@H]2[C@H](CCN2C(=O)c2ccoc2)O1.O=C(O)C(F)(F)F &field=Percent Effect returns 21.89

GET /value?item= Cc1occc1C(=O)N1CCO[C@H]2[C@@H](Oc3ccccn3)CC[C@@H]21.O=C(O)C(F)(F)F &field=Percent Effect returns 26.48

GET /value?item= CCC(=O)Nc1ccc2c(ccn2CCOC)c1 &field=Percent Effect returns 30.95

GET /value?item= CN(c1ccc(C(=O)NCCCN2CCCCC2)c(Cl)c1)S(C)(=O)=O &field=Percent Effect returns -14.39

GET /value?item= COCCn1ccc2cc(NC(C)=O)ccc21 &field=Percent Effect returns 20.32

GET /value?item= Cc1ccc(CN2C[C@@H](OCc3csc(C)n3)[C@H]3COC[C@H]32)s1.O=C(O)C(F)(F)F &field=Percent Effect returns -8.753

GET /value?item= CCN(C)c1ncnc2c1CCN(Cc1ccc(F)cc1)CC2.O=C(O)C(F)(F)F.O=C(O)C(F)(F)F &field=Percent Effect returns 0

---

# Test system: Trypanosoma brucei
# protocol-text: Trypanosoma brucei 72 hour study
# Assay type: functional, organism-based
# Parameters: scale not given: in the data most compounds retested in dose-response had high values
# details: 30 µM; 30.03 µM
The whole screen tested about 66,000 compounds, of which about 960 (1.5%) showed an effect of 50% or more. The entries come from a sample that favours strong results as a whole.
Assign Percent Effect to each entry below.
Quick reminder: number only, in %, skip the unit.

GET /value?item= Cc1cc(OCC(=O)NCc2ccc(F)cc2)nnc1C &field=Percent Effect returns 16.49

GET /value?item= Cc1ccc(-n2cccn2)cc1S(=O)(=O)N1C[C@H](C2CC2)[C@@H](N)C1 &field=Percent Effect returns 17.94

GET /value?item= Cc1ccc(-n2cccn2)cc1S(=O)(=O)N1C[C@@H]2CC[C@H](C1)N(C)C2 &field=Percent Effect returns 75.01

GET /value?item= Cn1cnc2c1C(COCC1CCOCC1)CN(C1CCOCC1)C2.O=C(O)C(F)(F)F.O=C(O)C(F)(F)F (stereo not given) &field=Percent Effect returns 15.95

GET /value?item= Cc1cc(OCCC(=O)Nc2cccc(F)c2)nnc1C &field=Percent Effect returns 46.79

GET /value?item= COc1ccc(-n2cccn2)cc1S(=O)(=O)N1C[C@H](C2CC2)[C@@H](N)C1 &field=Percent Effect returns 27.88

GET /value?item= CC(C)c1nnc(N2C[C@@H]3CC[C@H](C2)N(CC2CCC2)C3)s1 &field=Percent Effect returns -2.589

GET /value?item= O=C(O)C(F)(F)F.O=C1COC2(CCN(Cc3ccoc3)CC2)CN1c1ccccc1 &field=Percent Effect returns -9.648

GET /value?item= CCn1ncc(-c2cc(C(F)F)nc3sc(C(N)=O)c(N)c23)c1C &field=Percent Effect returns 26.92

GET /value?item= CCCc1noc(CCC(=O)N2CCCC2c2ccsc2)n1 (stereo not given) &field=Percent Effect returns -44.02
